These measurements were taken from PubChem BioAssay (NCI).

The following compounds are listed with their measured growth inhibition values.
method: NCI Yeast Anticancer Drug Screen. Data for the bub3 strain (AID 167)
condition: S. cerevisiae bub3 mutant strain, at 5.0 µM (retest, dose inferred, filed as 0.5), stronger effect = higher value
This is part of a sample that, as a whole, favours compounds with a hit. Of some 79,000 tested, about 15% had one in any assay.

| compound | unit_of_measure | growth inhibition |
| --- | --- | --- |
| COc1ccc2nc3c4c(nccc4c2c1)-c1ncccc1C3=O | % | 58 |
| O=c1c2ccccc2ncn1O | % | 5 |
| Cc1c2c(c(C)c3c[n+](C)ccc13)Oc1ccccc1O2 | % | 28 |
| CN(C)c1ccc2cc3c(cc2c1)Oc1ccccc1N3.[Cl][Zn][Cl] | % | 48 |
| O=[N+]([O-])c1ccc2nc3ccccc3[n+]([O-])c2c1 | % | 50 |
| CCC(=O)c1ccc([N+](=O)[O-])o1 | % | 13 |
| OCCNC(c1ccc(Cl)cc1)C(O)c1ccc(Cl)cc1 (configuration not stated) | % | 6 |
| CCNc1nnnn1CC | % | -1 |
| Oc1ccc(Cc2cccc(Cl)c2)c(O)c1 | % | 0 |
| CC(=O)c1ccc2c(c1)CCc1ccccc1-2 | % | 45 |
| COc1cc(OC)c(/C=C/c2c3ccccc3cc[n+]2C)c(OC)c1 | % | 67 |
| CCCCCCCCCCCC[N+]1(CCCCCCCCCCCC)CCCC(C)C1 (configuration not stated) | % | 99 |

---

method: NCI Yeast Anticancer Drug Screen. Data for the sgs1 mgt1 strain (AID 161);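 note: 0% = growth of cultures given vehicle only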
condition: S. cerevisiae sgs1 mgt1 strain, at 50.0 µM (retest, dose inferred, filed as 5.0), stronger effect = higher value
The panel holds about 79,000 compounds, 15% with a hit somewhere; the sample as a whole holds those more often.

| compound | growth inhibition (%) |
| --- | --- |
| O=C(Nc1ccc(Cl)c(Cl)c1)OCc1ccco1 | 99 |
| O=C(Nc1cccc(C(F)(F)F)c1)Oc1ccc(Cl)c2cccnc12 | 99 |
| COc1cc([C@@H]2c3cc4c(cc3[C@H](OC3OC5COC(c6ccccc6)OC5C(O)C3O)[C@H]3COC(=O)[C@H]23)OCO4)cc(OC)c1OC (stereo partly drawn) | 70 |

---

method: NCI Yeast Anticancer Drug Screen. Data for the bub3 strain (AID 167)
condition: S. cerevisiae bub3 mutant strain, at 50.0 µM (retest, dose inferred, filed as 5.0)
About 79,000 compounds went through this panel and 15% of them were active in at least one assay; those are over-represented in the sample as a whole. The source made the active and inactive calls. Cut-off read from the data, not from the text of the source: active = growth inhibition above about 70%; inactive = the rest.
Outcome codes: label 1 = active, label 0 = inactive

| compound | label_class |
| --- | --- |
| O=C(CCl)N1c2ccccc2Sc2c1ccc1ccccc21 | label 1 |
| OC(c1cc(C23CC4CC(CC(C4)C2)C3)nc2c(Cl)cc(Cl)cc12)C1CCCCN1 (configuration not stated) | label 1 |
| CCOc1ccc(NC(=O)/C(=N\N)C(C(=O)OC)c2nc3ccc(Cl)cc3[nH]c2=O)cc1 (configuration not stated) | label 0 |
| O=C1C=CC(=O)N1c1cc(Cl)c(Cl)cc1Cl | label 1 |
| CC(C)(C)c1ccc(O)c(-c2ccccc2)c1 | label 1 |
| Cc1nc([N+](=O)[O-])c(Sc2nncc(-c3ccccc3)n2)n1C | label 0 |
| Cc1cc(C)c(C#N)c(Sc2nc(C)c([N+](=O)[O-])c(C)c2C#N)n1 | label 0 |
